I'd be grateful if you could share measured growth at 10 µM for these entries.
tested on: MDA-MB-468; test: Cytotoxicity against human MDA-MB-468 cells assessed as cell growth at 10^-5 M after 48 hrs by SRB assay; format: functional; conditions: MDA-MB-468, 48 h, read-out: Activity
Give just the number in %; leave the unit off.

Asked: Any idea what growth at 10 µM was measured for `C=CCn1c(C)nc2ccc(Nc3nc(NCCO)nc4ccccc34)cc21` ?
Given back: 119

Asked: Any idea what growth at 10 µM was measured for `C=CCn1c(C)nc2ccc(Nc3nc(Nc4ccc5nc(C)n(CC=C)c5c4)c4ccccc4n3)cc21` ?
Given back: -99

Asked: Any idea what growth at 10 µM was measured for `C=CCn1c(C)nc2ccc(Nc3nc(Nc4ccc(F)cc4)nc4ccccc34)cc21` ?
Given back: -90

Asked: Any idea what growth at 10 µM was measured for `C=CCn1c(C)nc2ccc(Nc3nc(Nc4ncccn4)nc4ccccc34)cc21` ?
Given back: 78.3

Asked: Any idea what growth at 10 µM was measured for `C=CCn1c(C)nc2ccc(Nc3nc(Sc4ccc(N)cc4)nc4ccccc34)cc21` ?
Given back: 106

Asked: Any idea what growth at 10 µM was measured for `C=CCn1c(C)nc2cc(Nc3nc(Nc4ccc5nc(C)n(CC=C)c5c4)c4ccccc4n3)ccc21` ?
Given back: -85

Asked: Any idea what growth at 10 µM was measured for `C=CCn1c(C)nc2cc(Nc3nc(Nc4ccc5nc(C)n(CC=C)c5c4)nc4ccccc34)ccc21` ?
Given back: 118

Asked: Any idea what growth at 10 µM was measured for `C=CCn1c(C)nc2cc(Nc3nc(NCCO)nc4ccccc34)ccc21` ?
Given back: 53.5

----------
test system: NCI-H322M; test: Cytotoxicity against human NCI-H322M cells assessed as cell growth at 10^-5 M after 48 hrs by SRB assay; type: functional; settings: read-out: Activity
I'd be grateful if you could share measured growth at 10 µM for these entries.
Give just the number in %; leave the unit off.

Asked: Any idea what growth at 10 µM was measured for `C=CCn1c(C)nc2ccc(Nc3nc(Sc4ccc(N)cc4)nc4ccccc34)cc21` ?
Given back: 102

Asked: Any idea what growth at 10 µM was measured for `C=CCn1c(C)nc2cc(Nc3nc(Nc4ccc5nc(C)n(CC=C)c5c4)nc4ccccc34)ccc21` ?
Given back: 109

Asked: Any idea what growth at 10 µM was measured for `C=CCn1c(C)nc2cc(Nc3nc(NCCO)nc4ccccc34)ccc21` ?
Given back: 91.3

Asked: Any idea what growth at 10 µM was measured for `C=CCn1c(C)nc2ccc(Nc3nc(Nc4ncccn4)nc4ccccc34)cc21` ?
Given back: 100

Asked: Any idea what growth at 10 µM was measured for `C=CCn1c(C)nc2ccc(Nc3nc(Nc4ccc5nc(C)n(CC=C)c5c4)c4ccccc4n3)cc21` ?
Given back: -88

Asked: Any idea what growth at 10 µM was measured for `C=CCn1c(C)nc2ccc(Nc3nc(Nc4ccc(F)cc4)nc4ccccc34)cc21` ?
Given back: 41

Asked: Any idea what growth at 10 µM was measured for `C=CCn1c(C)nc2ccc(Nc3nc(NCCO)nc4ccccc34)cc21` ?
Given back: 100

Asked: Any idea what growth at 10 µM was measured for `C=CCn1c(C)nc2cc(Nc3nc(Nc4ccc5nc(C)n(CC=C)c5c4)c4ccccc4n3)ccc21` ?
Given back: -100

----------
tested on: M14; assay: Cytotoxicity against human M14 cells assessed as cell growth at 10^-5 M after 48 hrs by SRB assay; type: functional; conditions: M14, 48 h, read-out: Activity
I'd be grateful if you could share measured growth at 10 µM for these entries.
Give just the number in %; leave the unit off.

Asked: Lab note: need growth at 10 µM for `C=CCn1c(C)nc2cc(Nc3nc(Nc4ccc5nc(C)n(CC=C)c5c4)nc4ccccc34)ccc21` on M14, anyone have it?
Given back: 109

Asked: Lab note: need growth at 10 µM for `C=CCn1c(C)nc2ccc(Nc3nc(Nc4ccc(F)cc4)nc4ccccc34)cc21` on M14, anyone have it?
Given back: 8

Asked: Lab note: need growth at 10 µM for `C=CCn1c(C)nc2ccc(Nc3nc(Sc4ccc(N)cc4)nc4ccccc34)cc21` on M14, anyone have it?
Given back: 109

Asked: Lab note: need growth at 10 µM for `C=CCn1c(C)nc2cc(Nc3nc(Nc4ccc5nc(C)n(CC=C)c5c4)c4ccccc4n3)ccc21` on M14, anyone have it?
Given back: -88

Asked: Lab note: need growth at 10 µM for `C=CCn1c(C)nc2ccc(Nc3nc(Nc4ncccn4)nc4ccccc34)cc21` on M14, anyone have it?
Given back: 115

Asked: Lab note: need growth at 10 µM for `C=CCn1c(C)nc2cc(Nc3nc(NCCO)nc4ccccc34)ccc21` on M14, anyone have it?
Given back: 93.3

Asked: Lab note: need growth at 10 µM for `C=CCn1c(C)nc2ccc(Nc3nc(NCCO)nc4ccccc34)cc21` on M14, anyone have it?
Given back: 111

Asked: Lab note: need growth at 10 µM for `C=CCn1c(C)nc2ccc(Nc3nc(Nc4ccc5nc(C)n(CC=C)c5c4)c4ccccc4n3)cc21` on M14, anyone have it?
Given back: -95

----------
system: U-251; assay: Cytotoxicity against human U251 cells assessed as cell growth at 10^-5 M after 48 hrs by SRB assay; format: functional; settings: U-251, 48 h, read-out: Activity
I'd be grateful if you could share measured growth at 10 µM for these entries.
The answer should read as a number with its unit following.

Asked: Any idea what growth at 10 µM was measured for `C=CCn1c(C)nc2ccc(Nc3nc(Nc4ccc(F)cc4)nc4ccccc34)cc21` ?
Given back: 17%

Asked: Any idea what growth at 10 µM was measured for `C=CCn1c(C)nc2cc(Nc3nc(Nc4ccc5nc(C)n(CC=C)c5c4)c4ccccc4n3)ccc21` ?
Given back: -90.7%

Asked: Any idea what growth at 10 µM was measured for `C=CCn1c(C)nc2cc(Nc3nc(NCCO)nc4ccccc34)ccc21` ?
Given back: 90.9%

Asked: Any idea what growth at 10 µM was measured for `C=CCn1c(C)nc2ccc(Nc3nc(Nc4ccc5nc(C)n(CC=C)c5c4)c4ccccc4n3)cc21` ?
Given back: -100%

Asked: Any idea what growth at 10 µM was measured for `C=CCn1c(C)nc2ccc(Nc3nc(Nc4ncccn4)nc4ccccc34)cc21` ?
Given back: 89.8%

----------
system: NCI-H23; experiment: Cytotoxicity against human NCI-H23 cells assessed as cell growth at 10^-5 M after 48 hrs by SRB assay; format: functional; details: NCI-H23, 48 h, read-out: Activity
Answer not met if growth at 10 µM is under 80%, and met if it is 80% or more.

Asked: # bool: growth at 10 µM of `C=CCn1c(C)nc2ccc(Nc3nc(Nc4ccc(F)cc4)nc4ccccc34)cc21` >= 80%
Given back: not met

Asked: # bool: growth at 10 µM of `C=CCn1c(C)nc2cc(Nc3nc(Nc4ccc5nc(C)n(CC=C)c5c4)nc4ccccc34)ccc21` >= 80%
Given back: met

Asked: # bool: growth at 10 µM of `C=CCn1c(C)nc2ccc(Nc3nc(Nc4ncccn4)nc4ccccc34)cc21` >= 80%
Given back: met

Asked: # bool: growth at 10 µM of `C=CCn1c(C)nc2ccc(Nc3nc(Nc4ccc5nc(C)n(CC=C)c5c4)c4ccccc4n3)cc21` >= 80%
Given back: not met

Asked: # bool: growth at 10 µM of `C=CCn1c(C)nc2ccc(Nc3nc(Sc4ccc(N)cc4)nc4ccccc34)cc21` >= 80%
Given back: met

Asked: # bool: growth at 10 µM of `C=CCn1c(C)nc2cc(Nc3nc(Nc4ccc5nc(C)n(CC=C)c5c4)c4ccccc4n3)ccc21` >= 80%
Given back: not met

Asked: # bool: growth at 10 µM of `C=CCn1c(C)nc2ccc(Nc3nc(NCCO)nc4ccccc34)cc21` >= 80%
Given back: met
